- test_description: WST-1 cytotoxicity assay, HL-60
- Format: cell-based
- experimental_context: human, HL-60 cells (acute myeloid leukemia); WST-1, 48 h incubation; read-out: EC50 class, cytotoxic effect, CL-1 (HL-60)
measurement_type: EC50 at 48 h

Request: Name the reported EC50 at 48 h value associated with the compound CC(C)(C)CC(C)(C)NC(=O)Nc1ccc(F)c(F)c1O [Compound 150]
Result: 10 to 50 µM

Request: Name the reported EC50 at 48 h value associated with the compound Oc1ccc(NCc2ccccc2Sc2ccc(Cl)cc2)c(O)c1 [Compound 1044]
Result: 10 to 50 µM

Request: Name the reported EC50 at 48 h value associated with the compound CC(C)(C)CC(C)(C)NC(=O)Nc1cccc(Cl)c1O [Compound 54]
Result: 10 to 50 µM

Request: Name the reported EC50 at 48 h value associated with the compound CC(C)(C)CC(C)(C)NC(=O)Nc1cc(Cl)cc(Cl)c1O [Compound 30]
Result: < 10 µM

Request: Name the reported EC50 at 48 h value associated with the compound O=C(Nc1cc(Cl)c(O)c(Cl)c1)c1ccc2ccccc2c1 [Compound 1297]
Result: 50 to 100 µM

Request: Name the reported EC50 at 48 h value associated with the compound Oc1c(Cl)cc(Cl)cc1NCc1ccccc1Sc1ccccc1Cl [Compound 332]
Result: 10 to 50 µM

Request: Name the reported EC50 at 48 h value associated with the compound Oc1c(Cl)cc(Cl)cc1NC(=S)Nc1ccccc1C(F)(F)F [Compound 221]
Result: 10 to 50 µM

Request: Name the reported EC50 at 48 h value associated with the compound CC(C)(C)CC(C)(C)NC(=O)Nc1cc(Cl)ccc1O [Compound 6]
Result: 10 to 50 µM

Request: Name the reported EC50 at 48 h value associated with the compound Oc1c(Cl)cc(-c2nc3ccccc3s2)cc1NC(=S)NC1CCCC1 [Compound 653]
Result: < 10 µM

====

Would you mind telling me the reported IC50 of each entry?

Request: Query for UniProt:Q13526: what IC50 does the record show for CCCCCCCCS(=O)(=O)Nc1cc(Cl)c(C)c(Cl)c1O ?
Result: 1000 to 10000 nM

Request: Query for UniProt:Q13526: what IC50 does the record show for O=C(Cc1ccccc1[N+](=O)[O-])Nc1cc(Cl)c(O)c(Cl)c1 ?
Result: < 1000 nM

Request: Query for UniProt:Q13526: what IC50 does the record show for CC(C)(C)CC(C)(C)NC(=O)Nc1cc(Cl)c(O)c(Cl)c1 ?
Result: < 1000 nM

Request: Query for UniProt:Q13526: what IC50 does the record show for Cc1c(Cl)cc(NCc2ccccc2Sc2ccc(Cl)cc2)c(O)c1Cl ?
Result: < 1000 nM

Request: Query for UniProt:Q13526: what IC50 does the record show for O=C(Nc1cc(Cl)c(O)c(Cl)c1)c1ccccc1 ?
Result: < 1000 nM

Request: Query for UniProt:Q13526: what IC50 does the record show for Oc1c(Cl)cc(-c2nc3ccccc3s2)cc1NC(=S)NCc1ccccc1 ?
Result: 1000 to 10000 nM

Request: Query for UniProt:Q13526: what IC50 does the record show for Oc1ccc(NCc2ccccc2Sc2ccc(Cl)cc2)c(O)c1 ?
Result: < 1000 nM

Request: Query for UniProt:Q13526: what IC50 does the record show for Cc1c(Cl)cc(NC(=O)CC(C)CC(C)(C)C)c(O)c1Cl (stereo not drawn) ?
Result: 1000 to 10000 nM

Request: Query for UniProt:Q13526: what IC50 does the record show for O=C(CCc1ccccc1)Nc1cc(Cl)c(O)c(Cl)c1 ?
Result: 1000 to 10000 nM
